# assaySystem: SV40 large T antigen ATPase activity (Simian virus 40)
# Sequence (P03070 whole entry): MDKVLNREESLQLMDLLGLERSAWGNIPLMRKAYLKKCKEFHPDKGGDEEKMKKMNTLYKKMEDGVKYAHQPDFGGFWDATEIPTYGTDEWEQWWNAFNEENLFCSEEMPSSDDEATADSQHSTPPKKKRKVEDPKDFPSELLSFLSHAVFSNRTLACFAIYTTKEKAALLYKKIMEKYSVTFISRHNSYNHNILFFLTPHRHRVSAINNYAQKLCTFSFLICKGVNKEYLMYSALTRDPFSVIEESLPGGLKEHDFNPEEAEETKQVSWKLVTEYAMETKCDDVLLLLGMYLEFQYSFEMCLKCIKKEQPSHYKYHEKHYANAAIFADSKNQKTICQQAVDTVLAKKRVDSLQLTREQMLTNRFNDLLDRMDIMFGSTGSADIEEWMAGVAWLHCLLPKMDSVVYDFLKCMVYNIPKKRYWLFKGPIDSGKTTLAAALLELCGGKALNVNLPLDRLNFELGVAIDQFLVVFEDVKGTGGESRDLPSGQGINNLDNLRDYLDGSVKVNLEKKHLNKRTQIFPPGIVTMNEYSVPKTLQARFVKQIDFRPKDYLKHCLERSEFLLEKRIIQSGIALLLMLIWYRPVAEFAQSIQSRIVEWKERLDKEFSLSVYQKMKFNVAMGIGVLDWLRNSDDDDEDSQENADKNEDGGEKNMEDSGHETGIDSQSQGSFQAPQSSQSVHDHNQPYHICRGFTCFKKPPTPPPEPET
# assayComment: SV40 TAg ATPase primary assay
# Format: biochemical
# conditionInfo: read-out: IC50, inhibition of TAg ATPase activity in the primary assay; 1536-well, ADP Hunter, 1 mM ATP, 1% DMSO
observationType: IC50 (µM)
Use µM as the unit, but write only the number.

input: Recorded IC50 of CC1=C(C(=O)OCc2ccccc2)C(c2ccc(-c3ccccc3)cc2)NC(=O)N1CCCCCC(=O)O (stereo not shown) [MAL2-11B, reference compound] , please.
output: 19.5
